The values you see were collected from patent US20090298820A1.

target: UniProt P42345; test: mTOR enzyme assay (DELFIA format, His6-S6K substrate); format: biochemical; details: read-out: mTOR Kinase Median IC50
pIC50: −log10 of the molar value.
measurement_kind: pIC50

Previously resolved entries follow.
compound | target_or_test_system | pIC50
Cn1cc(/C=C2\Oc3cccc(O)c3C2=O)c2c(-c3ccc(C(=O)NCCCO)cc3)ccnc21 | UniProt P42345 | 9.22
CN(CCO)C(=O)c1ccc(-c2ccnc3c2c(/C=C2\Oc4cccc(O)c4C2=O)cn3C)cc1 | UniProt P42345 | 8.37
COCCCNC(=O)C1CCN(c2ccnc3c2c(C=C2Oc4ccc(NC(=O)Nc5cccnc5)cc4C2=O)cn3C)CC1 | UniProt P42345 | 8.32
CN(C(=O)C1CCN(c2ccnc3c2c(C=C2Oc4ccc(NC(=O)Nc5cccnc5)cc4C2=O)cn3C)CC1)C1CCS(=O)(=O)C1 (stereo not drawn) | UniProt P42345 | 7.94
Cn1cc(/C=C2\Oc3cccc(O)c3C2=O)c2c(N3CCC(C(=O)N4CCCC4)CC3)ccnc21 | UniProt P42345 | 9.22
CNc1ccc(-c2ccnc3c2c(/C=C2\Oc4cc(O)cc(O)c4C2=O)cn3C)cc1 | UniProt P42345 | 9.40
Cn1cc(/C=C2\Oc3cccc(O)c3C2=O)c2c(O)ccnc21 | UniProt P42345 | 5.70
CCN(CC)C(=O)C1CCN(c2ccnc3c2c(/C=C2\Oc4ccc(NC(=O)Nc5cccnc5)cc4C2=O)cn3C)CC1 | UniProt P42345 | 6.94

(A) Cn1cc(/C=C2\Oc3cccc(O)c3C2=O)c2c(-c3ccc(N4CC5CCC(C4)O5)cc3)ccnc21
(B) Cn1cc(/C=C2\Oc3cc(O)cc(O)c3C2=O)c2c(-c3cccc(Cl)c3)ccnc21
(C) CN(C)C(=O)c1cccc(-c2ccnc3c2c(/C=C2\Oc4cccc(O)c4C2=O)cn3C)c1
Please list the entries, largest pIC50 first. A ranking is expressed here by listing the labels in the requested order.
B, A, C
(B: 8.92, A: 8.03, C: 7.74)
